- Tested on: E. coli ML35p outer membrane
- assay text: Outer membrane disruption (β-lactamase leakage, nitrocefin)
- Format: cell-based, Escherichia coli
- condition details: DPBS; HCMAB = 100%
recorded metric: outer membrane disruption (β-lactamase activity) relative to HCMAB

• RRWKRFFKRWKGGVIGVTFPF (SEQ ID NO: 50) [ATRA1-R3W2-HYD, ATRA1-R3W2 with hydrophobic tail of NA-CATH joined by -GG-] = 160%
